Reported IC50 by item:
ASSAYED SYSTEM: HLA-B*5101 (human)
PROCEDURE SUMMARY: competition vs 125I-labelled probe peptide, purified HLA, gel filtration
Write the answer as a number in nM, unit excluded.

Example results:
Return the recorded IC50 value; entry: FPSETDGYI [Her2/neu.1120.F1I9]
31

Return the recorded IC50 value; entry: FPLDSTFYRSL (11-mer analog of the HER2/neu peptide starting at position 998) [Her2/neu.998.F1]
324

Return the recorded IC50 value; entry: FPLDSTFYRSI (11-mer analog of the HER2/neu peptide starting at position 998) [Her2/neu.998.F1I11]
46

Next:
Return the recorded IC50 value; entry: FPSETDGYV [Her2/neu.1120.F1]
32

Return the recorded IC50 value; entry: FPTHDPSPI [Her2/neu.1101.F1I9]
56

Return the recorded IC50 value; entry: FPREGPLPI (9-mer analog of the HER2/neu peptide starting at position 1151) [Her2/neu.1151.F1I9]
14
